Sourced from patent US9955691B2

Answer each item with its documented pest or weed control at 121.5 g/ha.
Tested on: Mycosphaerella graminicola; Anamorph: Septoria tritici
EXPERIMENT: Fungicidal activity: Leaf Blotch of Wheat (SEPTTR)
Format: in vivo
CONDITION: Zymoseptoria tritici, 24 h; Low Volume (121.5 g/H), 1 Day Protectant, wheat leaf blotch; read-out: SEPTTR 1 DP disease control
Description: Evaluation of Fungicidal Activity: Leaf Blotch of Wheat (Mycosphaerella graminicola; Anamorph: Septoria tritici; Bayer Code […]) Technical grades of materials were dissolved in acetone, which were then mixed with nine volumes of water containing 110 ppm Triton X-100. The fungicide solutions were applied onto wheat seedlings using an automated booth sprayer to run-off. […] All fungicides were evaluated using the aforementioned method for their activity vs. all target diseases, unless stated otherwise. […]

Request: Reported pest or weed control at 121.5 g/ha for "COc1ccnc(C(=O)N[C@H]2COC[C@H](Cc3ccccc3)[C@@H](CCC(C)C)[C@H](C)OC2=O)c1OCOC(=O)C(C)C" : what is it?
Response: < 70%

Request: Also "COc1ccnc(C(=O)N[C@H]2COC[C@H](Cc3ccc(Cl)cc3)[C@@H](CC(C)C)[C@H](C)OC2=O)c1OCOC(C)=O" ?
Response: > 70%

Request: Also "CCOCC(=O)OCOc1c(OC)ccnc1C(=O)N[C@H]1COC[C@H](Cc2ccccc2)[C@@H](C2CCCC2)[C@H](C)OC1=O" ?
Response: > 70%

Request: Also "CCC[C@H]1COC[C@H](NC(=O)c2nccc(OC)c2OCOC(=O)C(C)C)C(=O)O[C@@H](C)[C@@H]1c1ccccc1" ?
Response: > 70%

Request: Also "CCOCC(=O)OCOc1c(OC)ccnc1C(=O)N[C@H]1COC[C@H](Cc2ccccc2)[C@@H](CCC(C)C)[C@H](C)OC1=O" ?
Response: > 70%
